test system: mice; assay: Acute toxicity, mice perorally
ASSAY_METRIC: Acute toxicity, LD50 (mg/kg)

1) Cl.Cl.Cn1c(=O)n(CCCCN2CCN(C(c3ccc(F)cc3)c3ccc(F)cc3)CC2)c(=O)c2c1ncn2Cc1ccc(F)cc1 [I-k] = 400.0
2) Cl.Cl.Cn1c(=O)c2c(ncn2CCCCN2CCN(C(c3ccccc3)c3ccccc3)CC2)n(C)c1=O [II-f] = 750.0
3) Cl.Cl.Cn1c(=O)n(CCCCN2CCN(C(c3ccccc3)c3ccccc3)CC2)c(=O)c2c1ncn2Cc1ccccc1 [I-i] = 400.0

---

system: mice; assay: Acute toxicity, mice perorally
The compounds listed here are annotated with their Acute toxicity, LD50.
ASSAY_METRIC: Acute toxicity, LD50

1. Cl.Cl.Cn1c(=O)c2c(ncn2CC(O)CN2CCN(C(c3ccc(F)cc3)c3ccc(F)cc3)CC2)n(C)c1=O (racemic) = >1000.0 mg/kg
2. Cl.Cl.Cn1c(=O)n(CCCCN2CCN(C(c3ccc(F)cc3)c3ccc(F)cc3)CC2)c(=O)c2[nH]cnc21 = >1000.0 mg/kg
3. Cl.Cl.Cn1c(=O)n(CCCN2CCN(C(c3ccccc3)c3ccccc3)CC2)c(=O)c2[nH]cnc21 = >1000.0 mg/kg
4. Cl.Cl.Cn1c(=O)n(CCCCN2CCN(C(c3ccccc3)c3ccccc3)CC2)c(=O)c2c1ncn2Cc1ccc(F)cc1 = 400.0 mg/kg
5. Cl.Cl.Cn1c(=O)n(CCCN2CCN(C(c3ccc(F)cc3)c3ccc(F)cc3)CC2)c(=O)c2c1ncn2Cc1ccccc1 = >250.0 mg/kg
6. Cl.Cl.Cn1c(=O)n(CCCN2CCN(C(c3ccccc3)c3ccc(Cl)cc3)CC2)c(=O)c2c1ncn2Cc1ccccc1 (stereo not shown) = 400.0 mg/kg
7. Cl.Cl.Cn1c(=O)n(CCCCCN2CCN(C(c3ccc(F)cc3)c3ccc(F)cc3)CC2)c(=O)c2c1ncn2Cc1ccccc1 = 250 mg/kg

---

test system: mice; assay: Acute toxicity, mice perorally
The compounds listed here are annotated with their Acute toxicity, LD50.
ASSAY_METRIC: Acute toxicity, LD50

1. Cl.Cl.Cn1cnc2c1c(=O)n(CCCCN1CCN(C(c3ccccc3)c3ccccc3)CC1)c(=O)n2C [I-v] = >1000.0 mg/kg
2. Cl.Cl.Cn1c(=O)n(CCCCN2CCN(C(c3ccc(F)cc3)c3ccc(F)cc3)CC2)c(=O)c2c1ncn2Cc1ccccc1 [I-l] = >1000.0 mg/kg
3. Cl.Cl.Cn1c(=O)c2c(ncn2CCCN2CCN(C(c3ccccc3)c3ccccc3)CC2)n(C)c1=O [II-d] = >1000.0 mg/kg
4. Cl.Cl.Cn1c(=O)n(CCCCCN2CCN(C(c3ccccc3)c3ccccc3)CC2)c(=O)c2c1ncn2Cc1ccccc1 [I-m] = >200.0 mg/kg
